// provenance: patent US7064207B2

tested target: androgen receptor (Homo sapiens, UniProt P10275)
Sequence (P10275 1-920 Q868H): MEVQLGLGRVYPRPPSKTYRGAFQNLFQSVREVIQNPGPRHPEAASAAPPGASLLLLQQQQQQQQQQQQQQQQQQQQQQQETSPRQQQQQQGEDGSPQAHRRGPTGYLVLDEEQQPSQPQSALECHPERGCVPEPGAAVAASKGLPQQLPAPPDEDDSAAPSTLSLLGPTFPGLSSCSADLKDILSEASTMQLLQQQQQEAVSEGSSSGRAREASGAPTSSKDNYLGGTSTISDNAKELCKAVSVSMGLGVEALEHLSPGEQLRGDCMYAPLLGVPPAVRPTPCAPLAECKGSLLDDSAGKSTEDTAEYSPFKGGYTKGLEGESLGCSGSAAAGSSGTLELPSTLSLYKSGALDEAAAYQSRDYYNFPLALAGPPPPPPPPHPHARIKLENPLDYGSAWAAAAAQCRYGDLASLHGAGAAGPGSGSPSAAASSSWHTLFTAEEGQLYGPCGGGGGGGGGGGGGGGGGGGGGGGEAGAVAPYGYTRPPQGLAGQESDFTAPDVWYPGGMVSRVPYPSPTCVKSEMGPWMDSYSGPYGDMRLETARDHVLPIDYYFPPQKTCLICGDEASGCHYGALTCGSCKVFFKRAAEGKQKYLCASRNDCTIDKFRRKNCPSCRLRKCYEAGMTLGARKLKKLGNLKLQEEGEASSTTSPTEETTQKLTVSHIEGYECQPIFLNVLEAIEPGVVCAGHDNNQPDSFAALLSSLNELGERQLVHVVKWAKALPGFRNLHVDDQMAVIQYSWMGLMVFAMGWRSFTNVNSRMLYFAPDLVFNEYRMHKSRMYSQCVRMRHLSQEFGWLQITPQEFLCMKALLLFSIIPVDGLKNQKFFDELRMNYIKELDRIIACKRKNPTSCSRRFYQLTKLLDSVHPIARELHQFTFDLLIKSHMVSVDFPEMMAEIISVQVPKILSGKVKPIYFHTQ
assay explanation: AR Antagonist Cell Assay (MMTV-luciferase reporter, inhibition of DHT induction)
Assay type: cell-based
experimental parameters: MDA-MB453-MMTV clone 54-19 cells, 100 pM DHT, 17 hr, luciferase; read-out: Cell IC50
quantity name: pIC50
# pIC50 is unitless: minus log10 of the molar concentration; print number only

Worked cases, answers included:
- compound: "O=c1cc(C(F)(F)F)c2cc(S(=O)(=O)N3CCC(O)(c4cccs4)CC3)ccc2[nH]1"
  tested target: "androgen receptor (Homo sapiens, UniProt P10275)"
  pIC50: 6.19
- compound: "O=c1cc(C(F)(F)F)c2cc(S(=O)(=O)N3CCCC4CCCCC43)ccc2[nH]1 (centres unmarked)"
  tested target: "androgen receptor (Homo sapiens, UniProt P10275)"
  pIC50: 6.36
- compound: "O=c1cc(C(F)(F)F)c2cc(S(=O)(=O)N3CCC3)ccc2[nH]1"
  tested target: "androgen receptor (Homo sapiens, UniProt P10275)"
  pIC50: 6.37
- compound: "COc1cc2c(cc1OC)CN(S(=O)(=O)c1ccc3[nH]c(=O)cc(C(F)(F)F)c3c1)CC2"
  tested target: "androgen receptor (Homo sapiens, UniProt P10275)"
  pIC50: 6.32

Look up pIC50 for this compound: O=c1cc(C(F)(F)F)c2cc(S(=O)(=O)N3CCCCCC3)ccc2[nH]1
6.74

Look up pIC50 for this compound: O=c1cc(C(F)(F)F)c2cc(S(=O)(=O)N3CCC4(CC3)OCCO4)ccc2[nH]1
5.72

Look up pIC50 for this compound: O=c1cc(C(F)(F)F)c2cc(S(=O)(=O)N3CCCC3)ccc2[nH]1
6.51

Look up pIC50 for this compound: O=c1cc(C(F)(F)F)c2cc(S(=O)(=O)N3Cc4ccccc4C3)ccc2[nH]1
6.31
